Origin of the recorded values: patent US9447044B2

Reported pEC50 values follow for various compounds
Target: hGPR120 (Homo sapiens)
Construct: expressed in transfected cells; host or cells: CHO-K1
Sequence (Q5NUL3 whole entry): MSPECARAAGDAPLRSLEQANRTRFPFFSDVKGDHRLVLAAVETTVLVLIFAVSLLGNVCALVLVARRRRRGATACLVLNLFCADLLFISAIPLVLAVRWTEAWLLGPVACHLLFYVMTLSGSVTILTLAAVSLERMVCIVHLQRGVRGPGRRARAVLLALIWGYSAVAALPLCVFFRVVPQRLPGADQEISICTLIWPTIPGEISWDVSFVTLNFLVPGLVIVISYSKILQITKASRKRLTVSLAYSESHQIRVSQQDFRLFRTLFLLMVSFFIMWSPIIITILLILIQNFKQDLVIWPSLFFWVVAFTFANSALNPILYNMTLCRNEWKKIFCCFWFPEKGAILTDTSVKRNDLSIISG
Experiment: Measurement of activity of GPR120 agonist (cell-based assay), calcium fluorescence
Details: CHO-K1 cells expressing Ga16 and hGPR120; Calcium 5 dye fluorescence; activity class
pEC50: −log10 of the molar value.

INSERT INTO assay_data (compound, result) VALUES
  ('CC(Cc1ccc(OCc2cccnc2SC2CCCC2)c(F)c1)C(=O)O (stereo not shown)', '> 6.70'),
  ('O=C(O)C1CC1c1ccc(OCc2cccnc2SCC2CC2)c(F)c1 (single isomer, unassigned) [Example 165]', '> 6.70'),
  ('O=C(O)C[C@@H]1COc2cc(OCc3cccnc3SC3CCCC3)ccc21', '> 6.70');

Reported pEC50 for O=C(O)CCc1cc(F)c(OCc2cccnc2SCC(F)(F)F)c(F)c1 : what is it?
5.70 to 6.70

Data request, read-out pEC50, for O=C(O)CCc1ccc(OCc2cccnc2SC2CCC2)c(Cl)c1
> 6.70

Could you share which pEC50 value was measured for CCCCSc1ncccc1COc1ccc(CC(C)C(=O)O)cc1F (stereo not shown) ?
> 6.70

For the compound shown here, CCCSc1ncccc1COc1c(F)cc(C2CC2C(=O)O)cc1F (stereo not shown) , give the reported pEC50.
> 6.70
